Data credit: paper PMC3679108

# testedTarget: chicken GCRP receptor (chicken)
metric: CRE-luc reporter, HEK293T cells with the receptor: Emax (fold induction)
Number, no unit, nothing else.

Example results:
# binder, endpointValue
data = [
    ("HSEGTFSSDLTRYLDKMKAKDFVQWLMN [Xenopus GCRP]", 6.25),
    ("HADGTFTSDINKILDDMAAKEFLKWLINTKVTQ [Chicken GLP2]", 6.26),
    ("HTDGMFTSDLTNYLDKMKAKNFVEWLAAIKQQE [Medaka GCRP]", 6.93),
    ("HSEGTFTSDFTRYLDKMKAKDFVHWLINT [Chicken GCRP]", 6),
]

# ---- query binder ----
For YSEATLASDYSRTMDNMLKKNFVEWLLARREKKSDNVIEPY [Chicken GIP] , write its CRE-luc reporter, HEK293T cells with the receptor: Emax (fold induction).
6.22
